# System: Melanoderm tissue equivalent model MEL-300 containing melanocytes obtained from dark skin individuals
# experiment-description: Melanoderm tissue equivalent model MEL-300, total melanin content (inhibition of melanogenesis)
# Assay type: cell-based
# setup-conditions: Melanocyte, 336 h; 10 μM in maintenance medium, 14 days, total melanin content vs DMSO vehicle control; read-out: Melanoderm (% Reduction at 10 μM)
// inhibition at 10 µM lookup, one value per entry
test-readout: inhibition at 10 µM (%)

[[record]]
record_smiles = "COc1ccc(CNCCc2ccccc2)cc1"
unit_text = "%"
measured_value = 54.4

[[record]]
record_smiles = "COc1cc(CNCCc2ccccc2)cc(OC)c1"
unit_text = "%"
measured_value = 51.6

[[record]]
record_smiles = "Cc1ccc(CNCCc2ccccc2)cc1C"
unit_text = "%"
measured_value = 64.5

[[record]]
record_smiles = "COc1ccc(OC)c(CNCCc2ccccc2)c1"
unit_text = "%"
measured_value = 60.3

